The following compounds have recorded pKi on single chain tethered (tandem) HIV protease (HIV-1 M:B_HXB2R).
pKi: −log10 of the molar value.
Endpoint label: pKi

CCC[C@@]1(CCc2ccccc2)CC(O)=C([C@@H](c2cccc(NS(=O)(=O)c3ccc(N)cn3)c2)C(C)(C)C)C(=O)O1 (single isomer, unassigned); 9.59
CCC[C@@]1(CCc2ccccc2)CC(O)=C([C@H](CC)c2cccc(NS(=O)(=O)c3ccc(N)cn3)c2)C(=O)O1 (single isomer, unassigned) [Example 314]; 9.15
CCC[C@@]1(CCc2ccccc2)CC(O)=C([C@@H](c2cccc(NS(=O)(=O)c3cn(C)cn3)c2)C(C)(C)C)C(=O)O1 (single isomer, unassigned) [Example 308]; 10.13
CCCC1(CCC)CC(O)=C(C(c2cccc(NS(=O)(=O)c3cn(C)cn3)c2)C(C)(C)C)C(=O)O1 (single isomer, unassigned) [Example 319]; 7.53
CCC(C1=C(O)CC(CCc2ccccc2)(CCc2ccccc2)OC1=O)c1cccc(NS(=O)(=O)c2ccc(C(F)(F)F)cn2)c1 (single isomer, unassigned); 10.42
CC(C)CC1(CC(C)C)CC(O)=C(C(c2cccc(NS(=O)(=O)c3cn(C)cn3)c2)C(C)(C)C)C(=O)O1 (racemic); 9.40
CCC[C@@]1(CCc2ccc(F)cc2)CC(O)=C([C@H](c2cccc(NS(=O)(=O)c3ccc(C#N)cn3)c2)C(C)(C)C)C(=O)O1 (single isomer, unassigned); 7.87
CCC(C1=C(O)CC(CCc2ccccc2)(CCc2ccccc2)OC1=O)c1cccc(NS(=O)(=O)c2ccc(C#N)cn2)c1 (single isomer, unassigned) [Example 326]; 10.54
CCCC1(CCc2ccccc2)CC(O)=C(C(c2cccc(NS(=O)(=O)c3ccccn3)c2)C(C)(C)C)C(=O)O1 (single isomer, unassigned); 10.40
CCC[C@@]1(CCc2ccccc2)CC(O)=C([C@@H](c2cccc(NS(=O)(=O)c3cn(C)cn3)c2)C(C)(C)C)C(=O)O1 (single isomer, unassigned) [Example 310]; 8.82
CCCC1(CCC)CC(O)=C(C(c2cccc(NS(=O)(=O)c3ccc(C(F)(F)F)cn3)c2)C(C)(C)C)C(=O)O1 (single isomer, unassigned) [Example 285]; 10.82
CC(C)(C)C(C1=C(O)CC(CCc2ccccc2)(CCC(F)(F)F)OC1=O)c1cccc(NS(=O)(=O)c2ccc(N)cn2)c1 (single isomer, unassigned) [Example 271]; 10.29
CCC[C@]1(CCc2ccccc2)CC(O)=C([C@@H](CC)c2cccc(NS(=O)(=O)c3cn(C)cn3)c2)C(=O)O1 (single isomer, unassigned); 9.51
CC(C)(C)C(C1=C(O)C2CCCCCCC2OC1=O)c1cccc(NS(=O)(=O)c2ccc(C#N)cn2)c1 (stereo not shown); 9.70
CCC(C1=C(O)CC(CCc2ccccc2)(CCc2ccccc2)OC1=O)c1cccc(NS(=O)(=O)c2cc(C(F)(F)F)ccn2)c1 (single isomer, unassigned) [Example 289]; 9.88
CCC[C@@]1(CCc2ccc(F)cc2)CC(O)=C([C@@H](c2cccc(NS(=O)(=O)c3ccc(N)cn3)c2)C(C)(C)C)C(=O)O1 (single isomer, unassigned) [Example 316]; 9.45
CC(C)(C)C(C1=C(O)CC(CCc2ccccc2)(CCC(F)(F)F)OC1=O)c1cccc(NS(=O)(=O)c2ccc(N)cn2)c1 (single isomer, unassigned) [Example 268]; 9.08
CC(C)(C)C(C1=C(O)CC(CCc2ccccc2)(CCC(F)(F)F)OC1=O)c1cccc(NS(=O)(=O)c2ccc(C#N)cn2)c1 (single isomer, unassigned) [Example 266]; 10.48
CCC[C@@]1(CCc2ccc(F)cc2)CC(O)=C([C@H](CC)c2cccc(NS(=O)(=O)c3cn(C)cn3)c2)C(=O)O1 (single isomer, unassigned); 9.63
CCCC1(CCC)CC(O)=C(C(CC)c2cccc(NS(=O)(=O)c3ccc(C(F)(F)F)cn3)c2)C(=O)O1 (stereo not shown); 10.00
CCCC1(CCC)CC(O)=C(C(CC)c2cccc(NS(=O)(=O)c3ccc(C(N)=O)cn3)c2)C(=O)O1 (stereo not shown); 9.35
CCCC1(CCc2ccccc2)CC(O)=C(C(c2cccc(NS(=O)(=O)c3cn(C)cn3)c2)C(C)(C)C)C(=O)O1 (single isomer, unassigned); 10.14
